test system: HT-29 cells; assay: Growth inhibition of HT-29 cells by [3H]-TdR incorporation; type: cell-based; settings: Homo sapiens, [3H]-TdR incorporation during last 6 h of 3-day culture, read-out: growth inhibitory activity (IC50)
Threshold check on IC50: strictly below 2 nM is rule met; on or above 2 nM is rule not met.

| compound | test.target | class.assignment |
| --- | --- | --- |
| CCCCC(=O)NCCC(=O)Nc1cccc(-n2c(=O)n(C3CC3)c(=O)c3c(Nc4ccccc4F)n(C)c(=O)c(C)c32)c1 [pentanoyl JTP-74099] | HT-29 cells | rule not met |
| Cn1c(=O)cc(Nc2ccc(I)cc2F)c2c(=O)n(C3CC3)c(=O)n(-c3cccc(NS(C)(=O)=O)c3)c21 [JTP-70945] | HT-29 cells | rule met |
| CC(=O)Nc1cccc(-n2c(=O)n(C3CC3)c(=O)c3c(Nc4ccc(I)cc4F)n(C)c(=O)c(C)c32)c1 [JTP-74057] | HT-29 cells | rule met |
| COc1ccccc1Nc1cc(=O)n(C)c2c1c(=O)n(-c1ccccc1)c(=O)n2-c1ccccc1 [JTP-65634] | HT-29 cells | rule not met |
| O=C(NOC[C@H](O)CO)c1ccc(F)c(F)c1Nc1ccc(I)cc1F [PD0325901, reference compound] | HT-29 cells | rule not met |
| CCCCC(=O)NCCC(=O)Nc1cccc(-n2c(=O)n(C3CC3)c(=O)c3c(Nc4ccc(I)cc4F)n(C)c(=O)c(C)c32)c1 [pentanoyl JTP-74100] | HT-29 cells | rule not met |

* * *

target: UniProt P04049
Sequence (P04049 306-648): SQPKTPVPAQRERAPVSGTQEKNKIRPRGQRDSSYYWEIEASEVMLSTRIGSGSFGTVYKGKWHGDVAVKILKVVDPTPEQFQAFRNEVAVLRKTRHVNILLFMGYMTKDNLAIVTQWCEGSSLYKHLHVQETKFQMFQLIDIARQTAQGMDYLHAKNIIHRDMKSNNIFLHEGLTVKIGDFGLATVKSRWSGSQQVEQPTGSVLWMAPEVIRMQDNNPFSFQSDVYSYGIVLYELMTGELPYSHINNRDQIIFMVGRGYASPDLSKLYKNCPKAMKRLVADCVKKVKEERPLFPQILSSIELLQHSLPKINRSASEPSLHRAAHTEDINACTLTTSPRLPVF

| structure.smiles.string | IC50 |
| --- | --- |
| CC(=O)Nc1cccc(-n2c(=O)n(C3CC3)c(=O)c3c(Nc4ccc(I)cc4F)n(C)c(=O)c(C)c32)c1 | > 10 µM |
